Assay Name: OD615 S. cerevisiae growth inhibition, permissive medium, pilot counter-assay, permissive growth control for S. cerevisiae lifespan shortening project (AID 705)
Experimental Conditions: OD615, 24 h, at 10 µM, stronger effect = higher value
Recorded growth inhibition by entry
Measurement Kind: growth inhibition (%)

# Compound, Measurement Kind, Result Units, Data Value
records = [
    ("CCOc1ccccc1NC(=O)CSc1nnc(-c2cnccn2)n1C", "growth inhibition", "%", -24.8),
    ("Fc1cccc(Cl)c1CSc1ncn[nH]1", "growth inhibition", "%", -4.97),
    ("CCOCCOC(=O)C1=C(C)NC2=C(C(=O)CC(c3cccs3)C2)C1c1ccsc1 (stereo unspecified)", "growth inhibition", "%", -1.18),
    ("CCN(CC)CCOc1c(Br)ccc2c1sc1nc3n(c(=O)c12)CCC3", "growth inhibition", "%", -1.77),
    ("CC(=NCc1cccnc1)C1=C(O)c2ccccc2C1=O", "growth inhibition", "%", -0.03),
    ("Cc1ccc(CN2C(=O)/C(=C3\\SC(N4CCOCC4)=NC3=O)c3cc(Br)ccc32)cc1", "growth inhibition", "%", -10.5),
    ("COc1ccc(Nc2nc(C)cc(C)c2C#N)cc1OC", "growth inhibition", "%", -2.02),
    ("COc1ccccc1OCCC(=O)OCC(=O)NC(=O)NC(C)(C)C", "growth inhibition", "%", -2.01),
    ("c1cncc(CNc2nc(N3CCOCC3)nc(N3CCOCC3)n2)c1", "growth inhibition", "%", -10.4),
    ("CCN1CCN(c2cc(C)c3cc(NC(=O)c4ccc(Br)o4)ccc3n2)CC1", "growth inhibition", "%", -8.91),
    ("COC(=O)CN1C(=O)CC(C)(C)Sc2ccccc21", "growth inhibition", "%", -16.9),
]

====

Assay Name: growth suppression of PTEN-deleted HCT116, pilot screen, cell-based, HCT116 clonal line, CellTiter-Glo (AID 824);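 further: 0% = 20 µM Hyamine control and 100% = vehicle cell control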
Experimental Conditions: 60 h, at 10 µM
Results filed as inconclusive are left out. The source made the active and inactive calls.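 Rule for the calls: active = viability at or below 27.92% in each of two runs, the all-compound median minus 4 SD; inconclusive = no clear call, values can overlap the other calls; inactive = the rest.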
Outcomes: active, inactive

# Molecule, Category
measured = [
    ("COc1ccc2c(c1)[nH]c1c(N3CCN(Cc4ccc5c(c4)OCO5)CC3)ncnc12", "active"),
    ("Cc1ccc2c(CC(=O)O)coc2c1", "inactive"),
    ("CS(=O)(=O)Nc1ccccc1Oc1ccccc1", "inactive"),
    ("Cc1ccc(C)c(S(=O)(=O)Nc2ccc(O)cc2)c1", "inactive"),
    ("Cc1cc(C)n(-c2nnc(C)n2/N=C/c2cc(Br)ccc2OCc2ccccc2)n1", "active"),
    ("CC(C)Cc1cc(-c2ccco2)c(C#N)c(N)n1", "inactive"),
    ("CCOc1ccc(C2CC(c3ccc(OC)c(OC)c3)n3nc(N)nc3N2)cc1 (stereo unspecified)", "inactive"),
    ("O=C1C=C(NCc2ccco2)CC(c2ccc(Cl)cc2)C1 (stereo unspecified)", "inactive"),
    ("COc1cccc(C(=O)Nc2ccc3nc(N4CCOCC4)cc(C)c3c2)c1", "inactive"),
    ("COc1ccc(OC)c(C2CC(=O)N3CN(c4cccc(Cl)c4C)CSC3=C2C#N)c1 (stereo unspecified)", "inactive"),
    ("O=C(NCCCN1CCOCC1)NC12CC3CC(CC(C3)C1)C2", "inactive"),
]

====

Quick reference: RAM network inhibition of the listed items.
Assay Name: RAM signaling pathway blockade in yeast – S. cerevisiae, Pdr1DBD-CYC8 efflux-inhibited sensitized strain, primary screen (AID 1298);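 further: 0% = DMSO untreated cells without growth and 100% = 10 µM 1-NA-PP1 full growth; higher means more yeast growth rescued from 5-FOA killing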
Experimental Conditions: S. cerevisiae cbk1-as DSE1-URA3 strain, 5-FOA growth OD615, 2 d; at 50 µM; stronger effect = higher value

# Compound, Result Units, RAM network inhibition
data = [
    ("CCc1ccc(NC(=O)CSc2nnc(Cc3cccn3C)n2-c2ccc(F)cc2)cc1", "%", 7.15),
    ("CCOC(=O)CNS(=O)(=O)CCN1C(=O)c2ccccc2C1=O", "%", 0.77),
    ("CCOC(=O)N1CCN(C(=O)C(C)(C)Oc2ccc(Cl)cc2)CC1", "%", 3.09),
    ("NC(=O)CNC1CC(=O)N(CCc2ccccc2)C1=O (stereo unspecified)", "%", 1.69),
    ("COc1ccccc1CCNC(=O)c1cnn2c(C(F)F)cc(C)nc12", "%", 4.32),
    ("Cc1nn(-c2ccccc2)c2sc(C(=O)OCN3C(=O)c4ccccc4C3=O)cc12", "%", 4.24),
]

====

Assay Name: RAM signaling pathway blockade in yeast – S. cerevisiae, Pdr1DBD-CYC8 efflux-inhibited sensitized strain, primary screen (AID 1298);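 further: 0% = DMSO untreated cells without growth and 100% = 10 µM 1-NA-PP1 full growth; higher means more yeast growth rescued from 5-FOA killing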
Experimental Conditions: S. cerevisiae cbk1-as DSE1-URA3 strain, 5-FOA growth OD615, 2 d; at 50 µM; stronger effect = higher value
Measurement Kind: RAM network inhibition (%)

# Compound, Result Units, Data Value
rows = [
    ("O=C(NC(C(=O)c1ccccc1)N1CCCCC1)c1ccccc1 (configuration not stated)", "%", 1.67),
    ("CCOc1ccc(-n2c(Cc3cc(=O)[nH]c(=O)[nH]3)nnc2SCc2cccnc2)cc1", "%", 0.84),
    ("Cc1ccc2c(c1)C(c1ccc(F)cc1)N(C(=O)C1CC1)CC(=O)N2 (configuration not stated)", "%", 1.7),
    ("Cc1c(C(=O)N(C)Cc2ccccc2)oc2ccc(S(=O)(=O)N3CCCC3)cc12", "%", 4.09),
    ("CCN1C(=O)c2ccccc2S(=O)c2ccc(C(=O)N3CCCC3)cc21 (configuration not stated)", "%", -1.72),
    ("CN1CCN(C(=O)c2c(NC(=O)c3ccco3)sc3c2CCC(C(C)(C)C)C3)CC1 (configuration not stated)", "%", 0.15),
    ("Cn1c(CNc2ccccc2O)nc2ccccc21", "%", -1.31),
    ("CCN(CC)S(=O)(=O)c1ccc(NC(=O)Cn2c(=O)oc3ccccc32)cc1", "%", 5.71),
    ("Cc1csc(NC(=O)CSc2nnc(Cn3c(=O)sc4ccccc43)n2-c2ccccc2)n1", "%", 6.99),
    ("COc1ccc(NC(=O)C2CCN(S(=O)(=O)c3cccc4cccnc34)CC2)cc1OC", "%", 1.04),
    ("O=C(Nc1nc2cc3c(cc2s1)OCO3)C1=COCCO1", "%", 5.3),
    ("COCc1cc(=O)n2c(-c3ccccc3OC)n[nH]c2n1", "%", 9.13),
    ("CCOc1ccc(NC(=O)CSc2nnc(-c3ccccc3)n2N)cc1", "%", 2.18),
    ("CC(=O)Nc1ccc(S(=O)(=O)N2CCC(c3nc4ccc(C)cc4[nH]3)CC2)cc1", "%", 9.15),
    ("COc1ccccc1-n1c(SCC(=O)Nc2nnc(C)s2)nc2c(c1=O)SCC2", "%", 3.59),
    ("S=c1[nH]nc(-c2ccncc2)n1Cc1ccccc1", "%", 1.95),
    ("Cc1ccc(S(=O)(=O)c2nc(-c3cccs3)oc2SCC(N)=O)cc1", "%", 3.22),
    ("Cn1c(SCC(=O)Nc2ccc(F)cc2F)nnc1-c1cccnc1", "%", -0.27),
    ("O=C(CSCc1ccco1)Nc1cc(C(F)(F)F)ccc1N1CCOCC1", "%", 4.46),
    ("CCCCC(NC(C)=O)c1nc2ccccc2n1CCCC (configuration not stated)", "%", 4.56),
    ("CCOC(=O)Cc1csc(NC(NC(=O)CC)(C(F)(F)F)C(F)(F)F)n1", "%", 6.43),
    ("COc1cccc(-c2nc(CS(=O)CC(=O)NCc3ccc4c(c3)OCO4)c(C)o2)c1 (configuration not stated)", "%", 4.76),
]

====

Assay Name: viability gain of MRP-1-high H69AR cells under doxorubicin, pilot screen, MRP-1 activator project, CellTiter-Glo, duplicate (AID 807);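 further: compound pretreatment 18-22 h then 72 h combined with doxorubicin; 0% = doxorubicin alone and 100% = vehicle without doxorubicin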
Experimental Conditions: H69AR viability with doxorubicin, CellTiter-Glo luminescence; at 10 µM; stronger effect = higher value

# Molecule, Result Units, viability increase
data = [
    ("CCOC(=O)c1c(NC(=O)c2cc(C3CC3)on2)sc(C(C)=O)c1C", "%", -1.49),
    ("O=C(Oc1ccc(Cl)cc1)N1CCCCC1", "%", 0.94),
    ("CC1CSc2nnc(CCc3ccccc3)n21 (centres undefined)", "%", -2.61),
    ("CC1CCN(CCNC(=O)c2ccc(NC(=O)C3CCCO3)cc2)CC1 (centres undefined)", "%", -1.69),
    ("Cn1ccnc1SCC(=O)NC1CCCCC1", "%", -0.96),
    ("CN(C)CCNc1nc2c(c(=O)[nH]c(=O)n2C)n1CCCc1ccccc1", "%", -1.16),
    ("CC(=O)N1CCc2cc(C(=O)CN3CCN(c4ccccc4F)CC3)ccc21", "%", -3.19),
    ("CCOC(=O)c1ccc(NC(=O)CN2C(=O)CSC2=O)cc1", "%", 1.63),
    ("Cc1nc2nc(SCC(=O)N3CCOCC3)nn2c(C)c1Cc1ccccc1", "%", -3.4),
    ("CC(=O)c1c(C)n(-c2ccc(N(C)C)cc2)c2ccc(OCC(N)=O)cc12", "%", -4.87),
    ("CCCCNc1cc(=O)n(C)c(=O)[nH]1", "%", -0.6),
    ("CCNc1nc(-c2ccc(Cl)cc2)cs1", "%", -1.74),
    ("Cc1cc(C(C)(C)C)oc1C(=O)Nc1ccc(CC(=O)O)cc1", "%", 1.52),
    ("CS(=O)(=O)Nc1ccccc1Oc1ccccc1", "%", -0.66),
    ("COc1ccc(N(CC(=O)NCc2ccco2)S(C)(=O)=O)cc1Cl", "%", -3.2),
    ("Cn1c(CNc2ccccc2O)nc2ccccc21", "%", -6.1),
    ("Cc1cccc(NC(=O)C2C(C(=O)O)C3C=CC2C32CC2)c1C (centres undefined)", "%", -1.67),
    ("O=C1c2oc3ccc(F)cc3c(=O)c2C(c2cccc(O)c2)N1CCCN1CCOCC1 (centres undefined)", "%", 0.39),
    ("CCOc1cc(C2C(C(=O)c3ccco3)=C(O)C(=O)N2CCc2ccccc2)ccc1O (centres undefined)", "%", -1.77),
    ("Cc1c(C(=O)OCC2CCCO2)[nH]c2c1C(=O)CC(c1ccc(N(C)C)cc1)C2 (centres undefined)", "%", -0.25),
    ("COc1ccc(NC(=O)c2oc3ccccc3c2C)c(OC)c1", "%", -3.83),
    ("CCOC(=O)CON1C(=O)C(C)(C)N(OCC(=O)OCC)C(=O)C1(C)C", "%", -0.75),
    ("O=C(NCc1cccs1)C1CCCN(S(=O)(=O)c2cccc3cccnc23)C1 (centres undefined)", "%", -1.59),
    ("CCOc1cc(/C=N/O)cc(Br)c1OC", "%", -3.13),
]
